List of total protein half-life in vivo values.
experiment: total protein half-life in vivo (active degradation + dilution); higher = more stable protein; conditions: wild type E. coli NCM3722; growth: N-lim chemostat; doubling time 6 h
Write it as a number; the unit h goes unstated.

{"SEQUENCE_ENTRY": "MIPFNAPPVVGTELDYMQSAMGSGKLCGDGGFTRRCQQWLEQRFGSAKVLLTPSCTASLEMAALLLDIQPGDEVIMPSYTFVSTANAFVLRGAKIVFVDVRPDTMNIDETLIEAAITDKTRVIVPVHYAGVACEMDTIMALAKKHNLFVVEDAAQGVMSTYKGRALGTIGHIGCFSFHETKNYTAGGEGGATLINDKALIERAEIIREKGTNRSQFFRGQVDKYTWRDIGSSYLMSDLQAAYLWAQLEAADRINQQRLALWQNYYDALAPLAKAGRIELPSIPDGCVQNAHMFYIKLRDIDDRSALINFLKEAEIMAVFHYIPLHGCPAGEHFGEFHGEDRYTTKESERLLRLPLFYNLSPVNQRTVIATLLNYFS", "PROPERTY_MEASURED": "total protein half-life in vivo", "UNIT_ABBREV": "h", "VALUE_REPORTED": 5.2}

Now turn to the next sequence.
Memo: MPAENIVEVHHLKKSVGQGEHELSILTGVELVVKRGETIALVGESGSGKSTLLAILAGLDDGSSGEVSLVGQPLHNMDEEARAKLRAKHVGFVFQSFMLIPTLNALENVELPALLRGESSAESRNGAKALLEQLGLGKRLDHLPAQLSGGEQQRVALARAFNGRPDVLFADEPTGNLDRQTGDKIADLLFSLNREHGTTLIMVTHDLQLAARCDRCLRLVNGQLQEEA [P0A9T8] , reported total protein half-life in vivo: 7.11

---

assay: total protein half-life in vivo (active degradation + dilution); higher = more stable protein; settings: wild type E. coli NCM3722; growth: N-lim chemostat; doubling time 12 h
PROPERTY_MEASURED: total protein half-life in vivo (h)
Give the value in h but do not write h after it.

Worked cases, total protein half-life in vivo given:
{"SEQUENCE_ENTRY": "MFNSDNLRLDGKCAIITGAGAGIGKEIAITFATAGASVVVSDINADAANHVVDEIQQLGGQAFACRCDITSEQELSALADFAISKLGKVDILVNNAGGGGPKPFDMPMADFRRAYELNVFSFFHLSQLVAPEMEKNGGGVILTITSMAAENKNINMTSYASSKAAASHLVRNMAFDLGEKNIRVNGIAPGAILTDALKSVITPEIEQKMLQHTPIRRLGQPQDIANAALFLCSPAASWVSGQILTVSGGGVQELN [P0AET8]", "UNIT_ABBREV": "h", "total protein half-life in vivo": 7.31}
{"SEQUENCE_ENTRY": "MSNAITMGIFWHLIGAASAACFYAPFKKVKKWSWETMWSVGGIVSWIILPWAISALLLPNFWAYYSSFSLSTRLPVFLFGAMWGIGNINYGLTMRYLGMSMGIGIAIGITLIVGTLMTPIINGNFDVLISTEGGRMTLLGVLVALIGVGIVTRAGQLKERKMGIKAEEFNLKKGLVLAVMCGIFSAGMSFAMNAAKPMHEAAAALGVDPLYVALPSYVVIMGGGAIINLGFCFIRLAKVKDLSLKADFSLAKSLIIHNVLLSTLGGLMWYLQFFFYAWGHARIPAQYDYISWMLHMSFYVLCGGIVGLVLKEWNNAGRRPVTVLSLGCVVIIVAANIVGIGMAN", "UNIT_ABBREV": "h", "total protein half-life in vivo": 7.44}

Proceed to the following item.
The sequence identified as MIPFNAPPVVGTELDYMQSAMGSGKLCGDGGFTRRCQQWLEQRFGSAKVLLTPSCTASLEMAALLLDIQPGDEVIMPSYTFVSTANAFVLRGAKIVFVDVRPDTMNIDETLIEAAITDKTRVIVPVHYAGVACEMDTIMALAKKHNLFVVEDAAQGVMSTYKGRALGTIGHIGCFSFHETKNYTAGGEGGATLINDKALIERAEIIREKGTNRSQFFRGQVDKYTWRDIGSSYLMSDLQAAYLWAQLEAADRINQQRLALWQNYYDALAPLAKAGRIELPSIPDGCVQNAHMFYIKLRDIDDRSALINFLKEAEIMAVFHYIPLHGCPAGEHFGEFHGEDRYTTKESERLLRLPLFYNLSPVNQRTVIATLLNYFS registered its total protein half-life in vivo at 8.13
